test: protein stability index of a GFP-peptide fusion (yeast GPS) (PSI 1-4); higher = more stable; sorted into four equal gates, so the index is relative within each strain; conditions: doa10∆
Metric: protein stability index

Past entries and their recorded results:
TYRSRAQQVPPYGVYHP [SIN4]
2.77
EELILPNTKDAMSLYHS [PRP8]
3.18
KFLKIASLKHDNETKAM [RPN3]
2.75
VTRLFFICSIIQTVVIS [YML031W/NDC1]
1.23
ETRRKTTTVLKRYANHT [RET1]
2.14

Please give protein stability index, item by item, for the list that follows.
1. YTSIVQCCEFMTMLTPN [YML103C/NUP188]
2. CQILDGELDVLQIESVT [PRP8]
3. YAIIINYTKDNEYYPMC [YCS4]
4. HWMGSSVSGSPRPSYSS [YMR129W/POM152]
5. SDERAKLELINRYAYVL [LRP1]
6. VVDGTVVSCSQHGFEVQ [RPB7]
7. TIWCVCDSYLDADKELS [BRR2]

1. 2.13
2. 2.56
3. 1.36
4. 2.98
5. 2.55
6. 3.08
7. 2.39
